# SYSTEM_NAME: RARα (Homo sapiens, UniProt P10276)
# Sequence (P10276 whole entry, species assumed): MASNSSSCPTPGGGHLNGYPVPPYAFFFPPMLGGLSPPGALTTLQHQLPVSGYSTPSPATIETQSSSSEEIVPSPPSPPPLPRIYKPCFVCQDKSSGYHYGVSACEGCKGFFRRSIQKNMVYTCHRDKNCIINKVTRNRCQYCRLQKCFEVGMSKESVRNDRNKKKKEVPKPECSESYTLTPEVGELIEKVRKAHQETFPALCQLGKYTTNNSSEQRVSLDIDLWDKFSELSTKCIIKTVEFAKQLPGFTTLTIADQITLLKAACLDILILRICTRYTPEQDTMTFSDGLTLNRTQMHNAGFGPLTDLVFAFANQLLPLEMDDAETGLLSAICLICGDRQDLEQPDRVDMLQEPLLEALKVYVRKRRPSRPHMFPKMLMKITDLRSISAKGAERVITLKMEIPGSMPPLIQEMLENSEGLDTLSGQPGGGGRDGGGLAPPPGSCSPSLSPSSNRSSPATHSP
# ASSAY_COMMENT: cell-based

# MOLECULE, SYSTEM_NAME, READOUT_UNIT, COMPARATIVE_SIGN, EC50
rows = [
    ("CCC1=C(C(C)C)/C(=C/C(C)=C\\C=C\\C(C)=C\\C(=O)O)CCC1 [(9Z)-UAB8]", "RARα (Homo sapiens, UniProt P10276)", "nM", ">", 1000),
    ("CCC1=C(C(C)C)/C(=C/C(C)=C/C=C/C(C)=C\\C(=O)O)CCC1 [(13Z)-UAB8]", "RARα (Homo sapiens, UniProt P10276)", "nM", "=", 51),
    ("CCC1=C(C(C)C)/C(=C/C(C)=C/C=C/C(C)=C/C(=O)O)CCC1 [(all-E)-UAB8]", "RARα (Homo sapiens, UniProt P10276)", "nM", "=", 33),
]

###

# SYSTEM_NAME: RXRα (Homo sapiens, UniProt P19793)
# Sequence (P19793 whole entry): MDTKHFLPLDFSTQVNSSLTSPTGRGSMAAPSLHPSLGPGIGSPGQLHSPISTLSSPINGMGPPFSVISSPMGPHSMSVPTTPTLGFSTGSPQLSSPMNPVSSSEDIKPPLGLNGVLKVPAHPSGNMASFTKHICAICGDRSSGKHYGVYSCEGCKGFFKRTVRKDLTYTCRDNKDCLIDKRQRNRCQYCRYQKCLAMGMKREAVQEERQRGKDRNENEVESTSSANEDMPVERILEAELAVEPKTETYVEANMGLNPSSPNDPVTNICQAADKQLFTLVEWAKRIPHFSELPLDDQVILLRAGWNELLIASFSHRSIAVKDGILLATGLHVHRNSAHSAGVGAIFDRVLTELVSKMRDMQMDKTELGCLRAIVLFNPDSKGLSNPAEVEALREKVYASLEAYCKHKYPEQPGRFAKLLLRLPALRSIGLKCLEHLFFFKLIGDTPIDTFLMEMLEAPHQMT
# ASSAY_COMMENT: nuclear receptor radiolabeled competition binding, RXRα
pIC50: −log10 of the molar value.
QUANTITY_NAME: pIC50

# SMILES_TEXT, RESULT
measured = [
    ("CCC1=C(C(C)C)/C(=C/C(C)=C/C=C/C(C)=C/C(=O)O)CCC1", "< 5.70"),
]

###

# SYSTEM_NAME: RARβ (Homo sapiens)
# Construct: expressed in transfected cells; host or cells: CV-1 cells
# Sequence (P10826 1-455): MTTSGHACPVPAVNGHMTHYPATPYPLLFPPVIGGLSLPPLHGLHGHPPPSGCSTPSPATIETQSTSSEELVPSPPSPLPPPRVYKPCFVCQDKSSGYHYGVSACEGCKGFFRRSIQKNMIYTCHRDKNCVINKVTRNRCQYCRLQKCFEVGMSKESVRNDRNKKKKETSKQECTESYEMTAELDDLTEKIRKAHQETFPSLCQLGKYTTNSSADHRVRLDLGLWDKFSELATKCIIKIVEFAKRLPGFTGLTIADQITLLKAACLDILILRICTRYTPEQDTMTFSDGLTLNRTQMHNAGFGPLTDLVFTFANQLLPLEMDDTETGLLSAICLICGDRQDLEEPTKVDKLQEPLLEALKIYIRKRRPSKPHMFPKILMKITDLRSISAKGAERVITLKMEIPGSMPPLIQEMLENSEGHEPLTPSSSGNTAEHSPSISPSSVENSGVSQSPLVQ
# ASSAY_COMMENT: RARβ-mediated transcriptional activation in CV-1 cells
# Type: cell-based

# SMILES_TEXT, EC50
rows = [
    ("CCC1=C(C(C)C)/C(=C/C(C)=C\\C=C\\C(C)=C\\C(=O)O)CCC1", "> 2000 nM"),
]

###

Listed next: entries and their corresponding EC50.
# SYSTEM_NAME: RARγ (Homo sapiens, UniProt P13631)
# Sequence (P13631 whole entry, species assumed): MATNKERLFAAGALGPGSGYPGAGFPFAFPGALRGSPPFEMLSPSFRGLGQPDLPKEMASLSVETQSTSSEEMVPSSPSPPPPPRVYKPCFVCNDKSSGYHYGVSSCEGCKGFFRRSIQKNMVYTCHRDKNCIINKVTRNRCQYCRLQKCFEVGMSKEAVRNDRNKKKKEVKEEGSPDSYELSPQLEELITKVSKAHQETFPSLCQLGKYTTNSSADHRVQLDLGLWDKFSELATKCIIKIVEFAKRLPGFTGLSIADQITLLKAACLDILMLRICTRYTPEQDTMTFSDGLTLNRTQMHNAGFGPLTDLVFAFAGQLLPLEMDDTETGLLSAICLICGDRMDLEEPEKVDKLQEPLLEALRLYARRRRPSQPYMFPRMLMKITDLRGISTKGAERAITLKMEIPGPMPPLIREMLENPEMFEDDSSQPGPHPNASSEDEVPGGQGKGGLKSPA
# ASSAY_COMMENT: RARγ-mediated transcriptional activation in CV-1 cells
# Assay type: cell-based
QUANTITY_NAME: EC50

# COMPOUND, QUANTITY_NAME, RESULT
rows = [
    ("CCC1=C(C(C)C)/C(=C/C(C)=C\\C=C\\C(C)=C\\C(=O)O)CCC1", "EC50", "190 nM"),
    ("CCC1=C(C(C)C)/C(=C/C(C)=C/C=C/C(C)=C/C(=O)O)CCC1", "EC50", "2 nM"),
    ("CCC1=C(C(C)C)/C(=C/C(C)=C/C=C/C(C)=C\\C(=O)O)CCC1 [(13Z)-UAB8]", "EC50", "42 nM"),
]

###

# System: JMML cells
# ASSAY_COMMENT: inhibition of JMML spontaneous CFU-GM colony formation
# EXPERIMENTAL_CONTEXT: Homo sapiens, read-out: normalized percent inhibition of CFU-GM colony growth, patient J84 (%)

# COMPOUND, inhibition at 0.1 µM
rows = [
    ("CC(=C/C=C/C(C)=C/C(=O)O)/C=C1\\CCCc2ccccc21 [(9Z)-UAB30]", "44%"),
    ("CCC1=C(C(C)C)/C(=C/C(C)=C/C=C/C(C)=C\\C(=O)O)CCC1 [(13Z)-UAB8]", "18%"),
    ("CC(=C\\C=C\\C(C)=C\\C(=O)O)/C=C1\\CCCc2ccccc21 [(all-E)-UAB30]", "48%"),
    ("CC(=C/C(=O)O)/C=C/C=C(C)/C=C1\\CCCc2ccccc21 [(13Z)-UAB30]", "72%"),
]

###

# SYSTEM_NAME: RXRα (Homo sapiens)
# ASSAY_COMMENT: RXRα homodimer-mediated transcriptional activation in CV-1 cells
pEC50: −log10 of the molar value.

# COMPOUND, SYSTEM_NAME, pEC50
measured = [
    ("CCC1=C(C(C)C)/C(=C/C(C)=C/C=C/C(C)=C\\C(=O)O)CCC1 [(13Z)-UAB8]", "RXRα (Homo sapiens)", "< 5.70"),
    ("CCC1=C(C(C)C)/C(=C/C(C)=C/C=C/C(C)=C/C(=O)O)CCC1", "RXRα (Homo sapiens)", "< 5.70"),
]

###

# Test system: NB4 cells
# ASSAY_COMMENT: retinoid induction of differentiation of NB4 cells (NBT)
# Format: cell-based, Human
# EXPERIMENTAL_CONTEXT: Homo sapiens, NB-4, 96 h; 4-day induction of differentiation; read-out: ED50 (nM) NB4

# COMPOUND, READOUT_UNIT, COMPARATIVE_SIGN, EC50
measured = [
    ("CC1=C(/C=C/C(C)=C/C=C/C(C)=C/C(=O)O)C(C)(C)CCC1 [(all-E)-RA, all-trans-retinoic acid, reference compound]", "nM", "=", 610),
    ("CCC1=C(C(C)C)/C(=C/C(C)=C\\C=C\\C(C)=C/C(=O)O)CCC1 [(9Z, 13Z)-UAB8]", "nM", ">", 10000),
]

###

# SYSTEM_NAME: chick skin CRABP (Gallus gallus, UniProt A0A8V1AB82)
# Sequence (A0A8V1AB82 88-225): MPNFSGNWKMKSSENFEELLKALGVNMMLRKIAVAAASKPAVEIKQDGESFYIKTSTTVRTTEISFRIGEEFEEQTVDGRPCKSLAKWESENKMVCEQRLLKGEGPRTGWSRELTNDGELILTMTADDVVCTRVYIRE

# COMPOUND, IC50 / nM
data = [
    ("CC1=C(/C=C/C(C)=C/C=C/C(C)=C/C(=O)O)C(C)(C)CCC1 [(all-E)-RA, all-trans-retinoic acid, reference compound]", 600),
]

###

# SYSTEM_NAME: RARγ (Homo sapiens)
# ASSAY_COMMENT: nuclear receptor radiolabeled competition binding, RARγ
QUANTITY_NAME: IC50 (nM)

# SMILES_TEXT, COMPARATIVE_SIGN, RESULT
rows = [
    ("CCC1=C(C(C)C)/C(=C/C(C)=C/C=C/C(C)=C/C(=O)O)CCC1", "=", 10),
    ("CCC1=C(C(C)C)/C(=C/C(C)=C\\C=C\\C(C)=C\\C(=O)O)CCC1", ">", 1000),
]
